The values you see were collected from patent US6685932.

Measured Kd, listed per entry for reference.
target: extracellular domain of the IL-4Rα (IL-4 binding protein), P24394; test: biosensor (BIA2000), IL4BP biotinylated at Cys-206 on a streptavidin matrix, 25 C
Sequence (P24394 26-232 limits assumed): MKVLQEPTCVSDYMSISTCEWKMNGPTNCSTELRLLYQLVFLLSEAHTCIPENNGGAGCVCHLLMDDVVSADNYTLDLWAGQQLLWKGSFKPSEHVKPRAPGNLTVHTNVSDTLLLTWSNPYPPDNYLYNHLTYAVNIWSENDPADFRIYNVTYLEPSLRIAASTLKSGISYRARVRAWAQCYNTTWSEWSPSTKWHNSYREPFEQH
Value expressed in µM; do not type the unit.

RMKQLEKKVERCLKRLYRNEWEVIRLKKLVG (modifications not checked) [12CNMAR-IL4] : 5
RMKQLEKKVERLLKRNYRLENEVARLKKLVG (modifications not checked) [Model 2a] : 2160
RMKQLEKKVERLLKRNYRLENEVIRLKKLVG (modifications not checked) [Model 2b] : 193

**Q:** Using the record for RMKQLEKKVERCLKRNYRLEWEVIRLKKLVG (modifications not checked) [12CMAR-IL4] , report its Kd.
**A:** 5

**Q:** How about RMKQLEKKVERLLKRNYRLEWEVARLKKLVG (modifications not checked) [Model 2c] ?
**A:** 106

**Q:** Please do the same for RMKQLEKKVERLLKRNYRLEWEVIRLKKLVG (modifications not checked) [MAR-IL4] as well.
**A:** 26
